Target: T1, HD-PTP Bro1-CC-PRR (residues 1-738) (UniProt Q9H3S7 1-738)
T1 construct: His Domain Protein Tyrosine Phosphatase (HD-PTP), Bro1 and coiled-coil domains plus the proximal region of the PRR (714-738), residues 1-738; cloned into pET28a (NdeI/XhoI); immobilised by the His6 tag on the HTE chip; also called HD-PTP_(Bro1-CC-PRR (+tag)); source: E. coli BL-21(DE3), purified (Nickel beads, MonoQ anion exchange, Superdex200 SEC); not shown: His6, N-terminal, kept
T1 sequence (looked up): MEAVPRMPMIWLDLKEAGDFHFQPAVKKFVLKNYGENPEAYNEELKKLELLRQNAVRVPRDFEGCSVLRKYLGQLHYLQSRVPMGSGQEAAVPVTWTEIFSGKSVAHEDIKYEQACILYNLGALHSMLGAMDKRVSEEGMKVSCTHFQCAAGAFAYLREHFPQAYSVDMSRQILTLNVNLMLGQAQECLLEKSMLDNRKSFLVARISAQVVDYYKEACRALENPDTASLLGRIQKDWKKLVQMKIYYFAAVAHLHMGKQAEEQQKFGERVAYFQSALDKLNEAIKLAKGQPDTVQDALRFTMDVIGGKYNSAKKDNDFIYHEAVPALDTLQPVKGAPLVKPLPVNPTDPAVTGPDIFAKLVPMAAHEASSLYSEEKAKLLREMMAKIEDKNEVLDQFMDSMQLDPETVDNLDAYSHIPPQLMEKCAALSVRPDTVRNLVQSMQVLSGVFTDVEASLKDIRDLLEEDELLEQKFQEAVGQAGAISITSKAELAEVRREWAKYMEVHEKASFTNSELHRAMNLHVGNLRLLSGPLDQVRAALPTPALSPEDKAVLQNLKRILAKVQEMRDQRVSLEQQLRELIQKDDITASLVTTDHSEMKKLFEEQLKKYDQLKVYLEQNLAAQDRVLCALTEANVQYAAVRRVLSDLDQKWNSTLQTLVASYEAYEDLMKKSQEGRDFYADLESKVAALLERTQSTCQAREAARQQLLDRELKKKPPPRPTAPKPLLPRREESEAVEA
Test: SPR; ProteOn XPR36; His6-tagged HD-PTP Bro1-CC-PRR immobilised on an HTE chip (5000-8000 RU); synthetic peptides as analytes; equilibrium binding model; 25 °C; 10 mM HEPES pH 7.4, 150 mM NaCl, 0.05% Tween-20
Conditions: both partners purified
OUTCOME_MEASURE: Kd (µM)

I. SNIKSLSFPKLDSDDSNQKT (UBAP1 (ESCRT-I subunit), central region, residues 261-280; also called central region of UBAP1; source: synthetic peptide (Generon Ltd, UK)) [UBAP1 peptide (residues 261-280)]
II. KKKEEEDDDMKELENWAGSM (CHMP4B, C-terminal residues 205-224; also called peptide from the C-terminus of CHMP4B; source: synthetic peptide (Generon Ltd, UK)) [CHMP4B peptide (residues 205-224)]
Which gives the smaller Kd number: I or II ? Reply with the label of the item you choose.
II
